target: LILRB4 on LILRB4 effector reporter cells (jurkat-LILRB4) (UniProt Q8NHJ6 22-448); assay: cell-based or functional assay
Reported metric: EC50 (read off the curve); luciferase RLU, blocking of APOE

binder="humanized antibody RB4-G1-019 (antibody, human IgG1, kappa, V domains shown) VH: QVQLVQSGAEVKKPGASVKVSCKASGYTFTSYWMHWVRQAPGQGLEWMGEINPSNGRTNYNEKFKSRVTLTVDKSTSTVYMELSSLRSEDTAVYYCARDRYDEGNAMDYWGQGTTVTVSS VL: DIQMTQSPSSLSASVGDRVTITCRASQDITNYLNWYQQKPGKAPKLLIYYTSRLHSGVPSRFSGSGSGTEYTLTISSLQPDDFATYYCQQGDTLPRTFGQGTRLEIKR" result="~0.01 µg/mL"
binder="humanized antibody RB4-G1-020 (antibody, human IgG1, kappa, V domains shown) VH: QVQLVQSGAEVKKPGASVKVSCKASGYTFTSYWMHWVRQAPGQGLEWMGEINPSNGRTNYNEKFKSRVTMTRDTSTSTVYMELSSLRSEDTAVYYCARDRYDEGNAMDYWGQGTTVTVSS VL: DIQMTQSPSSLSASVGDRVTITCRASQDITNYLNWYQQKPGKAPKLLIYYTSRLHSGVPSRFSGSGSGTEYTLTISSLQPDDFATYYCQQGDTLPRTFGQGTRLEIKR" result="~0.02 µg/mL"
binder="humanized antibody RB4-G1-022 (antibody, human IgG1, kappa, V domains shown) VH: QVQLVQSGAEVKKPGASVKVSCKASGYTFTSYWMHWVRQAPGQGLEWIGEINPSNGRTNYNEKFKSRATLTVDKSTSTAYMELSSLRSEDTAVYYCARDRYDEGNAMDYWGQGTTVTVSS VL: DIQMTQSPSSLSASVGDRVTITCRASQDITNYLNWYQQKPGKAPKLLIYYTSRLHSGVPSRFSGSGSGTDYTFTISSLQPEDIATYYCQQGDTLPRTFGQGTRLEIKR" result="~0.02 µg/mL"

Proceeding to the next binder to report its EC50 (read off the curve); luciferase RLU, blocking of APOE.
Endpoint output: EC50 (read off the curve); luciferase RLU, blocking of APOE of humanized antibody RB4-G1-018 (antibody, human IgG1, kappa, V domains shown) VH: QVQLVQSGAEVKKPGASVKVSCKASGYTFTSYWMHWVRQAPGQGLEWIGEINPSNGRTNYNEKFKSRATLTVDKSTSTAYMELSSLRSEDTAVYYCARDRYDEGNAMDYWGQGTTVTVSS VL: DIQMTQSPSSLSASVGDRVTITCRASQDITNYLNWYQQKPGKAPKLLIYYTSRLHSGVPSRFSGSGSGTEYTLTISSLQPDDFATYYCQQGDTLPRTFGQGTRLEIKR . Value?
~0.01 µg/mL
